biological target: purified recombinant CBP KIX domain (Homo sapiens (Human)); experiment: microscale thermophoresis (MST), FITC-peptide fixed, purified KIX titrated, n=3
Metric Name: pKd
# pKd is unitless: minus log10 of the molar concentration; print number only

Tell me pKd reported for FITC-MYBMIM (FITC-conjugated D-amino acid retro-inverso peptide, D-aa)
4.60
